These data points were gathered from PubChem BioAssay (NCI).

test system: T-47D breast; assay: NCI-60 one-dose screen, 48 h; details: 10 µM unless noted
About 83,000 compounds went through this panel and 20% of them were active in at least one assay; those are over-represented in the sample as a whole. Activity calls are given as the source filed them. How the source made its calls: active means growth percent below 10; inactive means the rest.
Entry note: the call must match one of 1 (yes) = active, 0 (no) = inactive

{"Compound": "COc1cc(C2CC(c3ccc(Cl)cc3)=Nc3c(N)nc(N)nc3N2)ccc1Oc1nc(Nc2ccc(F)cc2)nc(N(C)C)n1 (stereo not given)", "Target Or System": "T-47D breast", "Answer Label": "0 (no)"}
{"Compound": "CN1CCN(C(=O)CCN(C(=O)Oc2cc3c(c4ccccc24)[C@H](CCl)CN3C(=O)c2cc3cc(OCCCN4CCC4)ccc3[nH]2)[C@H]2CCSSC2)CC1", "Target Or System": "T-47D breast", "Answer Label": "1 (yes)"}
{"Compound": "Cn1cc(-c2cc(N)n3nc(-c4c[nH]c5ccccc45)cc3n2)c2cc(Br)ccc21", "Target Or System": "T-47D breast", "Answer Label": "1 (yes)"}

Problem: Dear all, I need the recorded test outcome for `CC1=C(C)C(=O)C(N2CCSCC2)=CC1=O` , thank you.
Result: 0 (no)

Problem: What was the test verdict on `COc1ccc(-c2cc(C(=O)Oc3ccc(C=O)cc3OC)nn2-c2ccc(S(C)(=O)=O)cc2)cc1` ?
Result: 0 (no)

Problem: What did the test return for `N#CCc1nnc(NC(=O)c2ccc(-n3c(=O)[nH]c4ccccc4c3=O)cc2)s1` ?
Result: 0 (no)

Problem: Recorded test outcome, item `COc1cc2cc(C(=O)N3C[C@@H](CCl)c4c3cc(OC(=O)N(CCC(=O)N3CCN(C)CC3)[C@H]3CCSSC3)c3ccccc43)[nH]c2c(OC)c1OC`
Result: 1 (yes)

Problem: Which result was noted for this compound in the test: `Cc1cccc(/C=C/c2ccc(NC(=S)NCCCCN(C)C)cc2)c1`
Result: 1 (yes)
